B1: library; numbered along this chain (parent)
chain: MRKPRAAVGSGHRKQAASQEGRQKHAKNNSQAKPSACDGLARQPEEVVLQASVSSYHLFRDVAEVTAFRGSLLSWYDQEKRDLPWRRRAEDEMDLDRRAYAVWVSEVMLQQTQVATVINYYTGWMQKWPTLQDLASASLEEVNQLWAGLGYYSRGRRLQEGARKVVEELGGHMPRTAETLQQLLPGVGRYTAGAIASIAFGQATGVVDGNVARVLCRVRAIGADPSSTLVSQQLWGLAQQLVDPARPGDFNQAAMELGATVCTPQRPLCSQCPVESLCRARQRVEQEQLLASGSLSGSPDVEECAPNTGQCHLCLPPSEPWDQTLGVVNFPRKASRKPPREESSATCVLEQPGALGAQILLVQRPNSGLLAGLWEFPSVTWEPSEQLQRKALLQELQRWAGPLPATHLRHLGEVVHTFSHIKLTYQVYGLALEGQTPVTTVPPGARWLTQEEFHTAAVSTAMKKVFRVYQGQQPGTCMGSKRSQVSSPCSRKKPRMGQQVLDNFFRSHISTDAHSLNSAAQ

variants of: B1; test: 8OG:A repair function score (normalized; synonymous = 0, nonsense = -1) (normalized log-likelihood score); higher = more repair activity (WT-like); details: with 8OG:A DNA repair reporter (GFP) in HEK-293 MUTYH KO cells;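 further: cells sorted at 72 h after reporter transfection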
Classification field: t = 8OG:A repair function score at or over -0.02; f = 8OG:A repair function score under -0.02.

1. N143K ... f
2. A520H ... t
3. S515T ... t
4. C278S ... f
5. W75H ... f
6. T122G ... f
7. R81P ... f
8. A391Q ... t
9. R60G ... f
10. V500A ... t
11. Q126I ... t
12. G497K ... t
13. E342N ... t
14. Q50F ... f
15. T263H ... f
16. L290Q ... f
17. V218R ... f
